Target: HTRA1, Q92743
Sequence (Q92743 360-477): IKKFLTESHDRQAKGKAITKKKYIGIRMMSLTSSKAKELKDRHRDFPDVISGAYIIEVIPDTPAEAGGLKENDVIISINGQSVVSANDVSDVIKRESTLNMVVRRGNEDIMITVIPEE
Assay: holdup assay
Set-up: key: below the threshold = too weak to quantify, mostly under pKd 3.1 to 4
Conditions: plain residues with an end cap or a label only (N-terminal biotin on a linker: ado-ado)
measurementLabel: pKd
Answer with a number only.

QUERY: Please report pKd for the following binder: PYPTADHMLA [JUP, P14923]
RESULT: 4.32

QUERY: Could you please provide reported pKd for DGVNEKVSCV [HTR2A, P28223] ? Thanks!
RESULT: 4.95

QUERY: Tell me pKd reported for PPGKHLVTEV [KCNA7, Q96RP8]
RESULT: 4.84

QUERY: Provide pKd value for the following binder: EDLEDEWEVI [TECPR2, O15040]
RESULT: 5.29

QUERY: For the binder EDPRVEVTQF [SLC22A9, Q8IVM8] , report pKd.
RESULT: 3.49

QUERY: Output pKd of TNSRHGETTV [FZD2, Q14332]
RESULT: 4.41

QUERY: Quickly give me recorded pKd for ELSATVTTDC [TRIP6, Q15654]
RESULT: 3.56

QUERY: Annotate the binder SPDRDRESIV [SCN5A, Q14524] with its measured pKd.
RESULT: 4.51

QUERY: Check the records and state pKd for ARESQKVSHV [FAM110B, Q8TC76]
RESULT: 4.32

QUERY: Identify measured pKd corresponding to PSVGSKKTVL [REELD1, A0A1B0GV85]
RESULT: 3.55
